Ref: ChEMBL document CHEMBL4229544

system: Enterococcus faecalis; experiment: Antibacterial activity against Enterococcus faecalis ATCC 29212; type: functional
Some compounds, each annotated with its measured MIC.
Readout kind: MIC (µg/mL)

# Compound, Measured on, Observed value
records = [
    ("CNc1cc(F)cc2c1[nH]c1nc(CNC(=O)c3cnco3)nc(N3CCC(N)C3)c12 (stereo not drawn)", "Enterococcus faecalis", 1),
    ("CNc1cc(F)cc2c1[nH]c1nc(CNC(=O)c3cccnc3)nc(N3CCC(N)C3)c12 (stereo not drawn)", "Enterococcus faecalis", 0.25),
    ("CNc1cc(F)cc2c1[nH]c1nc(CNC(=O)c3cnco3)nc(N3CCC(N(C)C)C3)c12 (stereo not drawn)", "Enterococcus faecalis", 0.015),
]

* * *

tested on: Acinetobacter baumannii; assay: Antibacterial activity against Acinetobacter baumannii NCTC 13420; assay type: functional
Some compounds, each annotated with its measured MIC.
Readout kind: MIC (µg/mL)

# Compound, Unit string, Censoring sign, Observed value
records = [
    ("CNc1cc(F)cc2c1[nH]c1nc(CNC(=O)c3cocn3)nc(N3CCC(N)C3)c12 (centres undefined)", "µg/mL", "=", 16),
    ("CNc1cc(F)cc2c1[nH]c1nc(CNC(=O)c3cnco3)nc(N3CCC(N)C3)c12 (centres undefined)", "µg/mL", "=", 8),
    ("CNc1cc(F)cc2c1[nH]c1nc(CNC(=O)c3cnco3)nc(N3CCC(N(C)C)C3)c12 (centres undefined)", "µg/mL", "=", 1),
    ("CNc1cc(F)cc2c1[nH]c1nc(CNC(=O)c3cnco3)nc(N3CCC(NC)C3)c12 (centres undefined)", "µg/mL", ">", 64),
]

* * *

tested on: Mycolicibacterium smegmatis; experiment: Antibacterial activity against Mycobacterium smegmatis ATCC 19420; format: functional

# Compound, Unit string, MIC
data = [
    ("CNc1cc(F)cc2c1[nH]c1nc(CNC(=O)c3cccc(C(=O)OC)n3)nc(N3CCC(CN)C3)c12 (stereo not given)", "µg/mL", 0.06),
    ("NNC(=O)c1ccncc1 [ISONIAZID]", "µg/mL", 4),
    ("CNc1cc(F)cc2c1[nH]c1nc(CNC(=O)c3ocnc3C)nc(N3CCC(NC)C3)c12 (stereo not given)", "µg/mL", 0.06),
    ("CNc1cc(F)cc2c1[nH]c1nc(CNC(=O)c3cnco3)nc(N3CCC(NC)C3)c12 (stereo not given)", "µg/mL", 0.5),
    ("CNc1cc(F)cc2c1[nH]c1nc(CNC(=O)c3ccc4cc[nH]c4n3)nc(N3CCC(N(C)C)C3)c12 (stereo not given)", "µg/mL", 0.25),
]

* * *

system: Mycolicibacterium smegmatis; assay: Antibacterial activity against Mycobacterium smegmatis ATCC 19420; format: functional
Some compounds, each annotated with its measured MIC.
Readout kind: MIC

# Compound, Observed value
rows = [
    ("CNc1cc(F)cc2c1[nH]c1nc(CNC(=O)c3cnco3)nc(N3CCC(N)C3)c12 (stereo not drawn)", "0.25 µg/mL"),
    ("CNc1cc(F)cc2c1[nH]c1nc(CNC(=O)c3cocn3)nc(N3CCC(NC)C3)c12 (stereo not drawn)", "0.5 µg/mL"),
    ("COc1c(N2C[C@@H]3CCCN[C@@H]3C2)c(F)cc2c(=O)c(C(=O)O)cn(C3CC3)c12", "0.03 µg/mL"),
    ("CNc1cc(F)cc2c1[nH]c1nc(CNC(=O)c3cnco3)nc(N3CCC(CN)C3)c12 (stereo not drawn)", "0.06 µg/mL"),
    ("CO[C@H]1/C=C/O[C@@]2(C)Oc3c(C)c(O)c4c(O)c(c(/C=N/N5CCN(C)CC5)c(O)c4c3C2=O)NC(=O)/C(C)=C\\C=C\\[C@H](C)[C@H](O)[C@@H](C)[C@@H](O)[C@@H](C)[C@H](OC(C)=O)[C@@H]1C", "16 µg/mL"),
    ("CNc1cc(F)cc2c1[nH]c1nc(CNC(=O)c3ocnc3C)nc(N3CCC(N(C)C)C3)c12 (stereo not drawn)", "0.06 µg/mL"),
    ("CO[C@@H]1[C@@H](OC(N)=O)[C@@H](O)[C@H](Oc2ccc3c(O)c(NC(=O)c4ccc(O)c(CC=C(C)C)c4)c(=O)oc3c2C)OC1(C)C", "1 µg/mL"),
    ("CNc1cc(F)cc2c1[nH]c1nc(CNC(=O)c3cocn3)nc(N3CCC(N)C3)c12 (stereo not drawn)", "0.12 µg/mL"),
]
